# TESTED_ON: human MC3R (Homo sapiens)
# Sequence (P41968 whole entry): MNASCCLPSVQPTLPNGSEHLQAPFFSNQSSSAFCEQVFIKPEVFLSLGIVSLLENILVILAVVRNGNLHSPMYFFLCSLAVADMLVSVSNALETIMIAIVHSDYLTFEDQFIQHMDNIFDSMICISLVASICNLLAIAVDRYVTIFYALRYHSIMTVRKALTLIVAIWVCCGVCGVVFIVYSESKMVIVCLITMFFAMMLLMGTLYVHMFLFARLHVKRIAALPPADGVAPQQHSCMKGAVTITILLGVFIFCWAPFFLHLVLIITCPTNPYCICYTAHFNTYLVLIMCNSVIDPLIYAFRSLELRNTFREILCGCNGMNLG
# PROTOCOL_SUMMARY: Intracellular cAMP levels in live cells, MC3R agonist activity
# PROTOCOL_CONDITIONS: cAMP split-luciferase reporter cell line stably expressing human MC3R; direct agonist effect, measurement window 1
Non-standard residues stand in square brackets, D forms with d. Residues, ends and D or L forms follow the SMILES beside them. Nle = CCCC[C@H](N)C(=O)O
MEASURE_NAME: EC50 (nM)
Express your answer in nM, writing the number without its unit.

Please review the entries below; each comes with its answer.
• CCCC[C@H](NC(=O)CNC(=O)COCCOCCNC(=O)CNC(=O)CCc1ccc(I)cc1)C(=O)N[C@H](C)C(=O)N[C@@H](Cc1c[nH]cn1)C(=O)N[C@@H](Cc1ccccc1)C(=O)N[C@@H](CCCNC(=N)N)C(=O)N[C@H](Cc1c[nH]c2ccccc12)C(=O)N[C@@H](CC(=O)O)C(=O)N[C@@H](CCCNC(=N)N)C(=O)N[C@@H](Cc1ccccc1)C(=O)NCC(=O)O = 1.5
• CCCC[C@H](NC(=O)[C@@H](NC(=O)[C@@H](N)Cc1ccc(O)cc1)C(C)C)C(=O)N[C@@H](C)C(=O)N[C@@H](Cc1c[nH]cn1)C(=O)N[C@@H](Cc1ccccc1)C(=O)N[C@@H](CCCNC(=N)N)C(=O)N[C@H](Cc1c[nH]c2ccccc12)C(=O)N[C@@H](CC(=O)O)C(N)=O [CTX-1129, Tyr-Val-Nle-Ala-His-Phe-Arg-D-Trp-Asp] (H-YV[Nle]AHFR[dW]D-NH2) = 1.2

Turning to the following molecule.
Endpoint output: EC50 of CCCC[C@H](NC(C)=O)C(=O)N[C@H](C)C(=O)N[C@@H](Cc1c[nH]cn1)C(=O)N[C@@H](Cc1ccccc1)C(=O)N[C@@H](CCCNC(=N)N)C(=O)N[C@H](Cc1c[nH]c2ccccc12)C(=O)N[C@@H](Cc1ccccc1)C(=O)N[C@@H](CCCNC(=N)N)C(=O)N[C@@H](Cc1ccccc1)C(=O)NCC(=O)O [CTX-1529] (Ac-[Nle][dA]HFR[dW]FRFG-OH) . Value? 4.8
